# Test system: Escherichia coli
# measurement_notes: Antibacterial activity against Escherichia coli ATCC 25922 after 24 hr by agar well diffusion method; further: test concentration or dose not given here
# Type: functional
parameter: inhibition zone (IZ) (mm)
Answers are plain numbers, in mm.

The cases that follow already have their inhibition zone (IZ) on record.
Query string: Look up inhibition zone (IZ): O=C(/C=C/c1ccc(-c2ccc(Cl)c(Cl)c2)o1)c1ccc(Br)cc1
Result string: 20

Query string: Look up inhibition zone (IZ): CC(=O)N1N=C(c2ccc(C)cc2)CC1c1ccc(-c2ccc(Cl)c(Cl)c2)o1 (stereo not drawn)
Result string: 12

Query string: Look up inhibition zone (IZ): CC(=O)N1N=C(c2ccccc2O)CC1c1ccc(-c2ccc(Cl)c(Cl)c2)o1 (stereo not drawn)
Result string: 13

Required: inhibition zone (IZ), one value per molecule below.
1. O=C(/C=C/c1ccc(-c2ccc(Cl)c(Cl)c2)o1)c1ccccc1
2. Nc1cccc(C(=O)/C=C/c2ccc(-c3ccc(Cl)c(Cl)c3)o2)c1
3. CC(=O)N1N=C(c2cccc([N+](=O)[O-])c2)CC1c1ccc(-c2ccc(Cl)c(Cl)c2)o1 (stereo not drawn)
4. COc1ccc(C(=O)/C=C/c2ccc(-c3ccc(Cl)c(Cl)c3)o2)cc1
5. CC1(C)S[C@@H]2[C@H](NC(=O)[C@H](N)c3ccccc3)C(=O)N2[C@H]1C(=O)O

Result string:
1: 19; 2: 16; 3: 17; 4: 12; 5: 19

###

Exercise: state measured inhibition zone (IZ) for each of the compounds provided.
# Test system: Escherichia coli
# measurement_notes: Antibacterial activity against Escherichia coli ATCC 25922 after 24 hr by agar well diffusion method; further: test concentration or dose not given here
# Format: functional
Answers are plain numbers, in mm.

Query string: Look up inhibition zone (IZ): CC(=O)N1N=C(c2ccc(Cl)cc2)CC1c1ccc(-c2ccc(Cl)c(Cl)c2)o1 (centres undefined)
Result string: 19

Query string: Look up inhibition zone (IZ): CC(=O)N1N=C(c2ccc([N+](=O)[O-])cc2)CC1c1ccc(-c2ccc(Cl)c(Cl)c2)o1 (centres undefined)
Result string: 14

Query string: Look up inhibition zone (IZ): CC(=O)N1N=C(c2cccc(N)c2)CC1c1ccc(-c2ccc(Cl)c(Cl)c2)o1 (centres undefined)
Result string: 15

Query string: Look up inhibition zone (IZ): CC(=O)N1N=C(c2ccc(N)cc2)CC1c1ccc(-c2ccc(Cl)c(Cl)c2)o1 (centres undefined)
Result string: 17

Query string: Look up inhibition zone (IZ): Cc1ccc(C(=O)/C=C/c2ccc(-c3ccc(Cl)c(Cl)c3)o2)cc1
Result string: 19

Required: inhibition zone (IZ), one value per compound below.
1. CC(=O)N1N=C(c2ccccc2)CC1c1ccc(-c2ccc(Cl)c(Cl)c2)o1 (centres undefined)
2. CC(=O)N1N=C(c2ccc(F)cc2)CC1c1ccc(-c2ccc(Cl)c(Cl)c2)o1 (centres undefined)

Result string:
18
12

###

# Test system: Escherichia coli
# measurement_notes: Antibacterial activity against Escherichia coli ATCC 25922 after 24 hr by agar well diffusion method; further: test concentration or dose not given here
# Assay type: functional
parameter: inhibition zone (IZ) (mm)
One number for each entry, in mm.

Query string: Look up inhibition zone (IZ): O=C(/C=C/c1ccc(-c2ccc(Cl)c(Cl)c2)o1)c1ccc(Cl)cc1
Result string: 14

Query string: Look up inhibition zone (IZ): CC1(C)S[C@@H]2[C@H](NC(=O)Cc3ccccc3)C(=O)N2[C@H]1C(=O)O
Result string: 22

Query string: Look up inhibition zone (IZ): Nc1ccc(C(=O)/C=C/c2ccc(-c3ccc(Cl)c(Cl)c3)o2)cc1
Result string: 13

Query string: Look up inhibition zone (IZ): O=C(/C=C/c1ccc(-c2ccc(Cl)c(Cl)c2)o1)c1ccc(F)cc1
Result string: 16

Query string: Look up inhibition zone (IZ): O=C(/C=C/c1ccc(-c2ccc(Cl)c(Cl)c2)o1)c1cccc([N+](=O)[O-])c1
Result string: 11

Query string: Look up inhibition zone (IZ): COc1ccc(C2=NN(C(C)=O)C(c3ccc(-c4ccc(Cl)c(Cl)c4)o3)C2)cc1 (configuration not stated)
Result string: 20

Query string: Look up inhibition zone (IZ): O=C(/C=C/c1ccc(-c2ccc(Cl)c(Cl)c2)o1)c1ccc([N+](=O)[O-])cc1
Result string: 12

Query string: Look up inhibition zone (IZ): COC1=CC(=O)C[C@@H](C)[C@]12Oc1c(Cl)c(OC)cc(OC)c1C2=O
Result string: 0

Query string: Look up inhibition zone (IZ): CC(=O)N1N=C(c2ccc(Br)cc2)CC1c1ccc(-c2ccc(Cl)c(Cl)c2)o1 (configuration not stated)
Result string: 11

Query string: Look up inhibition zone (IZ): CCn1cc(C(=O)O)c(=O)c2cc(F)c(N3CCNCC3)cc21
Result string: 20

Required: inhibition zone (IZ), one value per compound below.
1. O=C(/C=C/c1ccc(-c2ccc(Cl)c(Cl)c2)o1)c1ccccc1O
2. CC1(C)S[C@@H]2[C@H](NC(=O)[C@H](N)c3ccc(O)cc3)C(=O)N2[C@H]1C(=O)O

Result string:
1: 14; 2: 18
